Listed here: compounds with reported pIC50 for UniProtKB O42275.
Sequence (O42275 whole entry): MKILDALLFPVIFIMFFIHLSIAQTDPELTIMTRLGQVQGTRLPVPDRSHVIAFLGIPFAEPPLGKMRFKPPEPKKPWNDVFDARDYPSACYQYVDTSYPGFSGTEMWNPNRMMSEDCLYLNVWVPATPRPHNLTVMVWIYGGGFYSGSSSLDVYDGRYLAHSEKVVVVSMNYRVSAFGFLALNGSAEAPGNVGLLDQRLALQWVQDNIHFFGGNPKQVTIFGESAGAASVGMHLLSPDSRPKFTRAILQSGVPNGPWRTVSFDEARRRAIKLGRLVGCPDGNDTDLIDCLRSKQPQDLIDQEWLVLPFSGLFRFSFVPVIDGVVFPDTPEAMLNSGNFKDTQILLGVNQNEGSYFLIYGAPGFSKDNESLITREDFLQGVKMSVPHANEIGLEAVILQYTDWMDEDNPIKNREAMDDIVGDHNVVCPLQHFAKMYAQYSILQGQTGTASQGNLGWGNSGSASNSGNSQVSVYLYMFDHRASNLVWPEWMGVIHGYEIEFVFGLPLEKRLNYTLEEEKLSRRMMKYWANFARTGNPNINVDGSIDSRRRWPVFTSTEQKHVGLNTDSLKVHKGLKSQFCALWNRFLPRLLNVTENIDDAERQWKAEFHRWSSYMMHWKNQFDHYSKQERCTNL
pIC50 is a log-scale quantity: -log10 of the concentration expressed in molar.

Value of measured pIC50 for the entry Oc1cc(/C=C/c2ccccc2)c2ccoc2c1 [FURANOKURZIN] : 4.38

Value of measured pIC50 for the entry `CC(C)=CCc1c(O)cc2c(c1O)C(=O)C[C@@H](c1ccccc1)O2` : 4.74

Value of measured pIC50 for the entry CC1(C)C=Cc2c(cc3oc(-c4ccccc4)c(O)c(=O)c3c2O)O1 [MACAKURZIN C] : 4.70

Value of measured pIC50 for the entry COc1cc(/C=C/c2ccccc2)cc(OC)c1 [3,5-O-DIMETHYLPINOSYLVIN] : 5.05

Value of measured pIC50 for the entry CC(C)=CCc1c(O)cc(O)c2c1O[C@H](c1ccccc1)CC2=O [GLABRANIN] : 4.64

Value of measured pIC50 for the entry `COc1cc(/C=C/c2ccccc2)c(CC=C(C)C)c(OC)c1` : 4.72

# credit: ChEMBL document CHEMBL2163346
